Sourced from PubChem BioAssay (NCI)

Below, each entry is listed alongside its reported growth inhibition.
- assay.procedure: NCI Yeast Anticancer Drug Screen. Data for the rad50 strain (AID 155);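 further: 0% = growth of vehicle-only cultures of the same strain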
- setup.conditions: S. cerevisiae rad50 strain growth inhibition; at 5.0 µM (retest, dose inferred, filed as 0.5); active compounds read high
- Protocol: Growth inhibition of yeast strains with defined genetic alterations is measured as a screen for potential anti-cancer activity. Selected strains with alterations in DNA damage repair or cell cycle control were exposed to compounds and growth inhibition was measured relative to vehicle treated controls. The strain used in this assay is rad50
This is part of a sample that, as a whole, favours compounds with a hit. Of some 79,000 tested, about 15% had one in any assay.
Please reply with the bare figure in % and do not write the unit itself.

Use these answered entries as a reference point.
> print(dat)
                                   compound  recorded.result
1  CN=C(N)N/N=C(\C)c1ccc2sc3ccc(/C(C)=N/NC(N)=NC)cc3c2c1               49
2  CC(=O)[O][Sn]([c]1ccccc1)([c]1ccccc1)[c]1ccccc1               97

Summary for this compound, C#CCN1C(=O)N(CC#C)C(=O)C(CC#C)(C(CC=C)c2ccccc2)C1=O (stereo not drawn) : growth inhibition is 1

###

Below, each entry is listed alongside its reported growth inhibition.
- assay.procedure: NCI Yeast Anticancer Drug Screen. Data for the cln2 rad14 strain (AID 165);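 further: 0% = growth equal to vehicle treated cultures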
- setup.conditions: S. cerevisiae cln2 rad14 strain, at 50.0 µM, active compounds read high
The panel holds about 79,000 compounds, 15% with a hit somewhere; the sample as a whole holds those more often. Active and inactive are the calls of the source. No stated cut-off is given here; in the data, active means growth inhibition above about 70%; inactive means the rest.

> print(dat)
                                    compound    recorded.result
 1      CCCCCCCCCCC[CH2][Hg][CH2]CCCCCCCCCCC  -4.65% (inactive)
 2  COC([CH2][Hg])CN1C(=O)c2cc(C)c(C)cc2C1=O (stereo unspecified)     98.3% (active)
 3             c1ccc(CC[n+]2cccc3ccccc32)cc1  -26.3% (inactive)
 4  C[C@]12CC[C@H]3[C@@H](CCC4=CC(=O)CC[C@@H]43)[C@@H]1CC[C@@H]2OC(=O)N(CCCl)N=O       79% (active)
 5  N.N.N.N.[Co+3].[O-][Cl+3]([O-])([O-])[O-].[OH3+].[OH3+]   13.9% (inactive)
 6  CSCC(NP1(=O)SC(NN=C(C)C)=NC1(C)C)C(=O)O (stereo unspecified)   20.3% (inactive)
 7         O=C(CCCc1ccccc1)[O][Hg][c]1ccccc1     99.2% (active)
 8  CN1CCCC2(CCCc3ccccc32)C1 (stereo unspecified)   15.3% (inactive)
 9  CC(=O)OCC12CCC(C)=CC1OC1C(O)C(OC(C)=O)C2(C)C12CO2 (stereo unspecified)     92.8% (active)
10  NC(CSC(c1ccccc1)c1ccccc1)C(=O)O (stereo unspecified)      5% (inactive)

Summary for this compound, CC(C)=NNC1=NC(CC(C)C)P(=O)(NCCCCNP2(=O)SC(NN=C(C)C)=NC2CC(C)C)S1 (stereo unspecified) : growth inhibition is -18.2% (inactive)

Summary for this compound, CC(=O)OC1CC2(C)C3(CO3)C1OC1C=C(C)C(=O)C(O)C12CO (stereo unspecified) : growth inhibition is 26.5% (inactive)

Summary for this compound, C[CH2][Sn]([CH2]C)([O]C(=O)c1ccc(F)cc1)[O]C(=O)c1ccc(F)cc1 : growth inhibition is 15.1% (inactive)

Summary for this compound, O=C1C(F)=C(N2CC2)C(=O)C(N2CCOCC2)=C1N1CC1 : growth inhibition is 84.5% (active)

Summary for this compound, CN(c1ccccc1)[N+](=O)[O-] : growth inhibition is -5.1% (inactive)

Summary for this compound, Cn1ccnc1C[N-]Cc1nccn1C.O=[N+]([O-])[O-].O=[N+]([O-])[O-].[Cu+2] : growth inhibition is 24.4% (inactive)

Summary for this compound, CCCCCCCCCCCCCC[As](=O)(O)O : growth inhibition is 1.65% (inactive)

Summary for this compound, CC(C)(C)c1ccc(O)cc1 : growth inhibition is -9.5% (inactive)
